B1: MLL5 (parent)
chain: DCMGIDRQHIPDTYLCERCQPRNL

- Variants of: B1
- Assay protocol: protein stability index of a GFP-peptide fusion (GPS, HEK-293T) (PSI 1-6); higher = more stable;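 further: lentivirally expressed fusions sorted by FACS into six bins by GFP to DsRed ratio, PSI derived from sequencing read proportions per bin multiplied by bin number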
- Settings: c terminus: a fixed tail appended
// Condition not met strictly below 3 in protein stability index; Condition met otherwise

DCMGIDRQHIPDTYGCERCQPRNL [L15G] : Condition met
DCMGIDRQHIPDTYLCFRCQPRNL [E17F] : Condition not met
ECMGIDRQHIPDTYLCERCQPRNL [D1E] : Condition not met
DCMGIDRQHIPDTYLCERCQYRNL [P21Y] : Condition not met
DCMGIIRQHIPDTYLCERCQPRNL [D6I] : Condition not met
DCMGIDRQHIPDTYLCERCQPRNT [L24T] : Condition met
DGMGIDRQHIPDTYLCERCQPRNL [C2G] : Condition not met
DCMGIDWQHIPDTYLCERCQPRNL [R7W] : Condition not met

Prompt line: State whether the measured protein stability index reaches 3, counting equality as reaching it, for DCMGIDRYHIPDTYLCERCQPRNL [Q8Y]
Response line: Condition not met

Prompt line: Record DCMGIDYQHIPDTYLCERCQPRNL [R7Y] ; criterion: protein stability index no lower than 3. Met?
Response line: Condition not met

Prompt line: Does the variant DCMGIDRQHIPDTYLCEECQPRNL [R18E] have recorded protein stability index that is 3 or more?
Response line: Condition met

Prompt line: Say whether DCMGIDRQHIPDTYLCERCQPRNK [L24K] shows protein stability index of 3 or more.
Response line: Condition met

Prompt line: # check: protein stability index of DCMGIDRCHIPDTYLCERCQPRNL [Q8C] is greater than or equal to 3
Response line: Condition not met

Prompt line: Could you verify whether the entry DCFGIDRQHIPDTYLCERCQPRNL [M3F] shows protein stability index of no less than 3?
Response line: Condition not met

Prompt line: I'd appreciate it if you could say whether DCMGIDRQHIFDTYLCERCQPRNL [P11F] has protein stability index at least equal to 3.
Response line: Condition not met

Prompt line: Hi team, for DCMGIDRQHIPDTYDCERCQPRNL [L15D] , is the recorded protein stability index at or above 3?
Response line: Condition met

Prompt line: Hi team, for DCMGIDRQHIPDTYLCERCQDRNL [P21D] , is the recorded protein stability index at or above 3?
Response line: Condition met

Prompt line: Does the variant DCMGIDRQHIPDTYSCERCQPRNL [L15S] have recorded protein stability index that is 3 or more?
Response line: Condition met

Prompt line: Quick check, protein stability index >= 3? DCMGMDRQHIPDTYLCERCQPRNL [I5M]
Response line: Condition met

Prompt line: Answer whether protein stability index of DCMGIDRQHIPDTYLCERCQKRNL [P21K] is greater than or equal to 3.
Response line: Condition met

Prompt line: # bool: protein stability index of DCMGIDRQHIPDTYLCEGCQPRNL [R18G] >= 3
Response line: Condition met

Prompt line: Is the recorded value of protein stability index equal to or greater than 3 for this variant? DCMGIDRQHIPDHYLCERCQPRNL [T13H]
Response line: Condition met

Prompt line: # bool: protein stability index of DCMKIDRQHIPDTYLCERCQPRNL [G4K] >= 3
Response line: Condition met

Prompt line: In plain terms: is recorded protein stability index at least 3 for DCMGIDRQHIPDTYNCERCQPRNL [L15N] ?
Response line: Condition met

Prompt line: Would you say DCMGIWRQHIPDTYLCERCQPRNL [D6W] shows protein stability index at minimum 3?
Response line: Condition not met

Prompt line: hey, is protein stability index for this one >= 3? DCMGIDGQHIPDTYLCERCQPRNL [R7G]
Response line: Condition met

Prompt line: Is reported protein stability index greater than or equal to 3 here: DCMGIDRQHQPDTYLCERCQPRNL [I10Q]
Response line: Condition met

Prompt line: Test whether the variant DCMGTDRQHIPDTYLCERCQPRNL [I5T] records protein stability index of 3 or higher.
Response line: Condition met

Prompt line: Assess whether reported protein stability index for DCMGIDRQHIPDTYLCGRCQPRNL [E17G] sits at 3 or higher.
Response line: Condition not met

Sourced from the supplement of paper PMC10567573
